These data points were gathered from paper PMC7826789.

- Test system: PIK3CA(H1047L)
- STUDY CONDITIONS: Compound Concentration (nM):1000;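 also: KINOMEscan scanMAX binding as percent activity remaining versus control; lower means stronger binding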
VALUE KIND: Percent Control (%)
Form entry: value (%) — number only.

- COMPOUND: "COc1cccc(-c2c[nH]c3c(N/N=C/c4ccncc4)ncnc23)c1 [GW814408X]"
  SCALE UNIT: "%"
  NUMERIC READOUT: 99
- COMPOUND: "COc1cc(N2CCN(C(C)C)CC2)ccc1Nc1nc(Nc2ccc(F)cc2C(=O)NC[C@@H](O)CO)c2cc[nH]c2n1 [GSK1392956A]"
  SCALE UNIT: "%"
  NUMERIC READOUT: 100
- COMPOUND: "Nc1ncnc2occ(-c3ccc(NC(=O)Nc4cc(C(F)(F)F)ccc4F)cc3)c12 [GW770249X]"
  SCALE UNIT: "%"
  NUMERIC READOUT: 100
- COMPOUND: "COc1ccc2cc(-c3c(-c4ccncc4)nc(-c4ccc(S(C)(=O)=O)cc4C)n3C)ccc2c1"
  SCALE UNIT: "%"
  NUMERIC READOUT: 100

Q: Bench note: what Percent Control did Cl.O=C(Nc1ccc(Oc2ccc3[nH]c(NC(=O)c4ccco4)nc3c2)cc1)Nc1cc(C(F)(F)F)ccc1F [GW683134A] show?
Result: 78

Q: Bench note: what Percent Control did O=C1Nc2ccc(C(=O)c3ccco3)cc2C1=Cc1cc(Cl)c(O)c(Cl)c1 [GW406108X] show?
Result: 41

Q: Bench note: what Percent Control did COc1ccc(COc2ccc(Cc3cnc(N)nc3N)cc2OC)cc1 [GW632580X] show?
Result: 75

Q: Bench note: what Percent Control did CCn1c(-c2nonc2N)nc2c(C#CC(C)(C)O)nc(OCCNC)cc21.Cl show?
Result: 100

###

Measured Percent Control, listed per entry.
- Tested on: IRAK4
- STUDY CONDITIONS: Compound Concentration (nM):1000
Form entry: value (%) — number only.

- COMPOUND: "Cl.O=S1CCN(Cc2ccc(-c3ccc4ncnc(Nc5ccc(OCc6ccccc6)c(F)c5)c4c3)o2)CC1 [GW576924A]"
  Percent Control, %: 100
- COMPOUND: "COc1cc(C=NNc2ncnc3c2cnn3-c2ccccc2)ccc1O [GW513184X]"
  Percent Control, %: 72
- COMPOUND: "O=C(Nc1n[nH]c2nc(-c3ccc(O)cc3)c(Br)cc12)C1CC1"
  Percent Control, %: 89

Q: Bench note: what Percent Control did CN(C)c1cc2c(Nc3ccc4c(cnn4Cc4ccccc4)c3)ncnc2cn1 [GW282974X] show?
Result: 100

Q: Bench note: what Percent Control did CC(C)COC(=O)c1ccc2c(c1)/C(=C/Nc1ccc(S(N)(=O)=O)cc1)C(=O)N2 [GW416981X] show?
Result: 100

###

- Test system: GRK4
- STUDY CONDITIONS: Compound Concentration (nM):1000
Measured Percent Control, listed per entry.
The answer should read as a number with its unit following.

- COMPOUND: "NS(=O)(=O)c1ccc(N/N=C2\\C(=O)Nc3ccc(C(=O)NCc4ccncc4)cc32)cc1 [GW300657X]"
  ASSAYED SYSTEM: "GRK4"
  VALUE KIND: "Percent Control"
  RESULT: "100%"
- COMPOUND: "C/C(Nc1ccc(S(N)(=O)=O)cc1)=C1/C(=O)Nc2ccccc21 [GW335962X]"
  ASSAYED SYSTEM: "GRK4"
  VALUE KIND: "Percent Control"
  RESULT: "100%"
- COMPOUND: "Cl.c1ccc(Cc2nc3ccc(Nc4ncnc5ccccc45)cc3[nH]2)cc1 [GR269666A]"
  ASSAYED SYSTEM: "GRK4"
  VALUE KIND: "Percent Control"
  RESULT: "91%"

Here is another compound to look at.
Q: Bench note: what Percent Control did COc1cc(/C=N/Nc2ncnc3[nH]ncc23)ccc1O [GW578748X] show?
Result: 100%
